system: HeLa; assay: Antiproliferative activity against human HeLa cells after 72 hrs by MTT assay; assay type: functional, cell-based
Readout Label: IC50 (µM)

C=CCOc1ccc(C(=O)C2=C3OC(C)(C)[C@@H](CC=C(C)C)C[C@@]34C[C@@H](CC=C(C)C)C(C)(C)[C@@](CC=C(C)C)(C2=O)C4=O)cc1O = 15

(A) CCC(=O)Oc1ccc(C(=O)C2=C3OC(C)(C)[C@@H](CC=C(C)C)C[C@@]34C[C@@H](CC=C(C)C)C(C)(C)[C@H]3CCC(C)(C)O[C@]34OC2=O)cc1OC(=O)CC
(B) CC(C)=CC[C@H]1C[C@@]23C[C@@H](CC=C(C)C)C(C)(C)[C@@](CC=C(C)C)(C(=O)C(C(=O)c4ccc(OCc5ccccc5)c(OCc5ccccc5)c4)=C2OC1(C)C)C3=O
-- ask Short answer wanted: higher IC50, A or B ? Answer with the label corresponding to your selection.
-- reply A
(A: 15.4 µM, B: 10.6 µM)

---

test system: HeLa; test: Antiproliferative activity against human HeLa cells after 72 hrs by MTT assay; assay type: functional, cell-based
Readout Label: IC50 (µM)

(I) CC(C)=CC[C@H]1C[C@@]23C[C@@H](CC=C(C)C)C(C)(C)[C@@](CC=C(C)C)(C(=O)C(C(=O)c4ccc(OC(=O)c5cccs5)c(OC(=O)c5cccs5)c4)=C2OC1(C)C)C3=O
(II) CC(C)=CC[C@H]1C[C@@]23C[C@@H](CC=C(C)C)C(C)(C)[C@@](CC=C(C)C)(C(=O)C(C(=O)c4ccc(O)c(O)c4)=C2OC1(C)C)C3=O
-- ask Short answer wanted: higher IC50, I or II ? Answer with the label corresponding to your selection.
-- reply II

---

tested on: HeLa; assay: Antiproliferative activity against human HeLa cells after 72 hrs by MTT assay; assay type: functional, cell-based
Readout Label: IC50 (µM)

(I) CCCCCC(=O)Oc1ccc(C(=O)C2=C3OC(C)(C)[C@@H](CC=C(C)C)C[C@@]34C[C@@H](CC=C(C)C)C(C)(C)[C@H]3CCC(C)(C)O[C@]34OC2=O)cc1OC(=O)CCCCC
(II) CC(=O)Oc1ccc(C(=O)C2=C3OC(C)(C)[C@@H](CC=C(C)C)C[C@@]34C[C@@H](CC=C(C)C)C(C)(C)[C@H]3CCC(C)(C)O[C@]34OC2=O)cc1OC(C)=O
-- ask Given I and given II , which shows the smaller recorded IC50? Answer with the label corresponding to your selection.
-- reply II
(II: 5.32 µM, I: 15.4 µM)

---

system: K562; assay: Antiproliferative activity against human K562 cells after 72 hrs by MTT assay; type: functional, cell-based; conditions: K562, 72 h
pIC50: −log10 of the molar value.
Items are presented alongside their recorded pIC50.

CC(C)=CCOc1ccc(C(=O)C2=C3OC(C)(C)[C@@H](CC=C(C)C)C[C@@]34C[C@@H](CC=C(C)C)C(C)(C)[C@@](CC=C(C)C)(C2=O)C4=O)cc1OCC=C(C)C = < 4.70
CCCCCCCC(=O)Oc1ccc(C(=O)C2=C3OC(C)(C)[C@@H](CC=C(C)C)C[C@@]34C[C@@H](CC=C(C)C)C(C)(C)[C@H]3CCC(C)(C)O[C@]34OC2=O)cc1OC(=O)CCCCCCC = < 4.70
CC(C)=CC[C@H]1C[C@]23C[C@@H](CC=C(C)C)C(C)(C)[C@H]4CCC(C)(C)O[C@]42OC(=O)C(C(=O)c2ccc(OC(=O)c4ccccc4)c(OC(=O)c4ccccc4)c2)=C3OC1(C)C = < 4.70
CCCCCC(=O)Oc1cc(C(=O)C2=C3OC(C)(C)[C@@H](CC=C(C)C)C[C@@]34C[C@@H](CC=C(C)C)C(C)(C)[C@H]3CCC(C)(C)O[C@]34OC2=O)ccc1O = 4.87
C=CCOc1ccc(C(=O)C2=C3OC(C)(C)[C@@H](CC=C(C)C)C[C@@]34C[C@@H](CC=C(C)C)C(C)(C)[C@@](CC=C(C)C)(C2=O)C4=O)cc1O = < 4.70
C=CC(=O)Oc1ccc(C(=O)C2=C3OC(C)(C)[C@@H](CC=C(C)C)C[C@@]34C[C@@H](CC=C(C)C)C(C)(C)[C@@](CC=C(C)C)(C2=O)C4=O)cc1OC(=O)C=C = < 4.70
CC(C)=CC[C@H]1C[C@@]23C[C@@H](CC=C(C)C)C(C)(C)[C@@](CC=C(C)C)(C(=O)C(C(=O)c4ccc(O)c(O)c4)=C2OC1(C)C)C3=O = 4.85
CCC(=O)Oc1ccc(C(=O)C2=C3OC(C)(C)[C@@H](CC=C(C)C)C[C@@]34C[C@@H](CC=C(C)C)C(C)(C)[C@H]3CCC(C)(C)O[C@]34OC2=O)cc1OC(=O)CC = < 4.70

-- ask Please report the recorded pIC50 for CC(C)=CC[C@H]1C[C@@]23C[C@@H](CC=C(C)C)C(C)(C)[C@@](CC=C(C)C)(C(=O)C(C(=O)c4ccc(O)c(OC(=O)c5ccccc5)c4)=C2OC1(C)C)C3=O .
-- reply 4.86

-- ask Now try CC(C)=CC[C@H]1C[C@@]23C[C@@H](CC=C(C)C)C(C)(C)[C@@](CC=C(C)C)(C(=O)C(C(=O)c4ccc(OS(=O)(=O)c5ccc(C)cc5)c(OS(=O)(=O)c5ccc(C)cc5)c4)=C2OC1(C)C)C3=O .
-- reply < 4.70

-- ask Now try CC(C)=CC[C@H]1C[C@@]23C[C@@H](CC=C(C)C)C(C)(C)[C@@](CC=C(C)C)(C(=O)C(C(=O)c4ccc(OCCCCCBr)c(O)c4)=C2OC1(C)C)C3=O .
-- reply < 4.70

---

system: HeLa; experiment: Antiproliferative activity against human HeLa cells after 72 hrs by MTT assay; assay type: functional, cell-based
Readout Label: IC50 (µM)

(1) CC(C)=CC[C@H]1C[C@@]23C[C@@H](CC=C(C)C)C(C)(C)[C@@](CC=C(C)C)(C(=O)C(C(=O)c4ccc(O)c(OC(=O)c5cccs5)c4)=C2OC1(C)C)C3=O
(2) C=CCOc1ccc(C(=O)C2=C3OC(C)(C)[C@@H](CC=C(C)C)C[C@@]34C[C@@H](CC=C(C)C)C(C)(C)[C@@](CC=C(C)C)(C2=O)C4=O)cc1OCC=C
(3) CC(C)=CC[C@H]1C[C@@]23C[C@@H](CC=C(C)C)C(C)(C)[C@@](CC=C(C)C)(C(=O)C(C(=O)c4ccc(OCCCCCN5CCOCC5)c(OCCCCCN5CCOCC5)c4)=C2OC1(C)C)C3=O
-- ask Could you please order the items by IC50, going from the lowest number to the highest? The labels, placed in the requested order, form the answer.
-- reply 3, 1, 2
(3: 5 µM, 1: 10.8 µM, 2: 15.8 µM)

---

tested on: K562; test: Antiproliferative activity against human K562 cells after 72 hrs by MTT assay; format: functional, cell-based; settings: K562, 72 h
Readout Label: IC50

CC(C)=CCOc1ccc(C(=O)C2=C3OC(C)(C)[C@@H](CC=C(C)C)C[C@@]34C[C@@H](CC=C(C)C)C(C)(C)[C@@](CC=C(C)C)(C2=O)C4=O)cc1O = > 20 µM

-- ask Please report the recorded IC50 for CC(C)=CC[C@H]1C[C@@]23C[C@@H](CC=C(C)C)C(C)(C)[C@@](CC=C(C)C)(C(=O)C(C(=O)c4ccc(OCCCCCBr)c(OCCCCCBr)c4)=C2OC1(C)C)C3=O .
-- reply > 20 µM

-- ask Now try CCCCCCCC(=O)Oc1cc(C(=O)C2=C3OC(C)(C)[C@@H](CC=C(C)C)C[C@@]34C[C@@H](CC=C(C)C)C(C)(C)[C@H]3CCC(C)(C)O[C@]34OC2=O)ccc1O .
-- reply 15.3 µM

-- ask Now try COc1ccc(C(=O)C2=C3OC(C)(C)[C@@H](CC=C(C)C)C[C@@]34C[C@@H](CC=C(C)C)C(C)(C)[C@@](CC=C(C)C)(C2=O)C4=O)cc1OC .
-- reply > 20 µM

-- ask Now try C=CCOc1ccc(C(=O)C2=C3OC(C)(C)[C@@H](CC=C(C)C)C[C@@]34C[C@@H](CC=C(C)C)C(C)(C)[C@@](CC=C(C)C)(C2=O)C4=O)cc1OCC=C .
-- reply > 20 µM

-- ask Now try CC(C)=CC[C@H]1C[C@@]23C[C@@H](CC=C(C)C)C(C)(C)[C@@](CC=C(C)C)(C(=O)C(C(=O)c4ccc(OCCCCCN5CCOCC5)c(OCCCCCN5CCOCC5)c4)=C2OC1(C)C)C3=O .
-- reply > 20 µM

-- ask Now try CC(C)=CC[C@H]1C[C@@]23C[C@@H](CC=C(C)C)C(C)(C)[C@@](CC=C(C)C)(C(=O)C(C(=O)c4ccc(OCc5ccccc5)c(OCc5ccccc5)c4)=C2OC1(C)C)C3=O .
-- reply > 20 µM

-- ask Now try CC(=O)Oc1ccc(C(=O)C2=C3OC(C)(C)[C@@H](CC=C(C)C)C[C@@]34C[C@@H](CC=C(C)C)C(C)(C)[C@H]3CCC(C)(C)O[C@]34OC2=O)cc1OC(C)=O .
-- reply > 20 µM

-- ask Now try C#CCOc1ccc(C(=O)C2=C3OC(C)(C)[C@@H](CC=C(C)C)C[C@@]34C[C@@H](CC=C(C)C)C(C)(C)[C@@](CC=C(C)C)(C2=O)C4=O)cc1O .
-- reply > 20 µM

Origin of measurements: ChEMBL document CHEMBL4382259
